The measured values listed here are drawn from patent US20260184815A1.

Measured Ki by item
Target: pKal catalytic domain Mutant 4 (human) (UniProt P03952)
Sequence (P03952 391-638, change not shown): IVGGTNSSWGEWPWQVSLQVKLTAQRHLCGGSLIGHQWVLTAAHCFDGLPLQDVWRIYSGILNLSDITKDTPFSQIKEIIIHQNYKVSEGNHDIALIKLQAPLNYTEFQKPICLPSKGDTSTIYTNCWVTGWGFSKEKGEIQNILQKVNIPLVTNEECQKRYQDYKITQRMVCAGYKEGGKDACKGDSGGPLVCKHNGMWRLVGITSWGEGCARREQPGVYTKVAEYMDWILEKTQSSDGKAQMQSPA
Test: equilibrium Ki,app, enzyme inhibition with fluorogenic substrate, tight binding fit
// return numeric value only (unit: nM, not printed)

1) X115-D01 (antibody, V domains shown) VH: EVQLLESGGGLVQPGGSLRLSCAASGFTFSIYSMHWVRQAPGKGLEWVSSIYPSRGMTWYADSVKGRFTISRDNSKNTLYLQMNSLRAEDTAVYYCAYRRTGIPRRDAFDIWGQGTMVTVSS VL: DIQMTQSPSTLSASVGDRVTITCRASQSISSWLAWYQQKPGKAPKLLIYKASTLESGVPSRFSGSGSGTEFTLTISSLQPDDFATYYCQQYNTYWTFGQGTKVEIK    0.12
2) X115-G04 (antibody, V domains shown) VH: EVQLLESGGGLVQPGGSLRLSCAASGFTFSHYIMMWVRQAPGKGLEWVSGIYSSGGITVYADSVKGRFTISRDNSKNTLYLQMNSLRAEDTAVYYCAYRRTGVPRRDEFDIWGQGTMVTVSS VL: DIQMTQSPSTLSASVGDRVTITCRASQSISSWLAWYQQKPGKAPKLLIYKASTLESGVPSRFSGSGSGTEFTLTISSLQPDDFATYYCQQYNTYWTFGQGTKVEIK    0.3
3) M35-G04 (antibody, V domains shown) VH: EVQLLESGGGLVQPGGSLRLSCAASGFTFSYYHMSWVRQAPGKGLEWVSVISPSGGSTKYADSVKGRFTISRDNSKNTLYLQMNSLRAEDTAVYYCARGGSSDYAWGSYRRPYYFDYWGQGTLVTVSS VL: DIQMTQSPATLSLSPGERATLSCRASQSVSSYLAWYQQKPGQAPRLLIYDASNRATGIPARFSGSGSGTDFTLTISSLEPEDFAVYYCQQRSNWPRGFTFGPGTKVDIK    0.8
4) X115-B07 (antibody, V domains shown) VH: EVQLLESGGGLVQPGGSLRLSCAASGFTFSHYLMTWVRQAPGKGLEWVSYISPSGGHTIYADSVKGRFTISRDNSKNTLYLQMNSLRAEDTAVYYCAMVGQGIRGRSRTSYFAQWGQGTLVTVSS VL: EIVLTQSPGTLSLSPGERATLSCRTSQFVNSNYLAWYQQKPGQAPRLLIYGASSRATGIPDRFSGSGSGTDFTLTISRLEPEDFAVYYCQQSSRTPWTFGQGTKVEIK    0.14

Let's switch to this binder now.
Request: May I ask what Ki has been recorded for X115-A03 (antibody, V domains shown) VH: EVQLLESGGGLVQPGGSLRLSCAASGFTFSHYIMMWVRQAPGKGLEWVSGIYSSGGITVYADSVKGRFTISRDNSKNTLYLQMNSLRAEDTAVYYCAWRRIGVPRRDSFDMWGQGTMVTVSS VL: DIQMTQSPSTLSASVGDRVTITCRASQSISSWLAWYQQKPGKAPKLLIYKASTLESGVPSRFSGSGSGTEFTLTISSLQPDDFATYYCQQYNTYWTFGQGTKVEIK ?
Result: 0.13
